src = PubChem BioAssay

assayProcedure: OD615 S. cerevisiae growth inhibition, permissive medium, pilot counter-assay, permissive growth control for S. cerevisiae lifespan shortening project (AID 705)
appliedConditions: OD615, 24 h, at 10 µM, stronger effect = higher value
Activity calls are given as the source filed them.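 The calls were made as follows: active = growth inhibition above 25% in both replicates, a cutoff set 3 SD above the mean; inconclusive = above 25% in only one replicate; inactive = the rest.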

- compound: "Cn1c(=O)[nH]c(=O)c2c1nc(Sc1ncccn1)n2CCCc1ccccc1"
  growth inhibition: "-10.3% (inactive)"
- compound: "O=C(NCc1cccnc1)c1nnc(Cc2ccc(F)cc2)o1"
  growth inhibition: "7.17% (inactive)"
- compound: "O=C1C(C=NCCN2CCOCC2)=C(O)c2ccccc21"
  growth inhibition: "-15.9% (inactive)"
- compound: "COC(=O)C1=C(N)OC2=C(C(=O)CC(C)(C)C2)C1c1cccnc1 (stereo not drawn)"
  growth inhibition: "-3.42% (inactive)"
- compound: "COc1cccc(-c2cc(C(=O)Nn3cnnc3)c3ccccc3n2)c1"
  growth inhibition: "-12.2% (inactive)"
- compound: "CCc1cccc(Nc2cc(C)nc3nc(C)nn23)c1"
  growth inhibition: "-14.3% (inactive)"
- compound: "CCCc1cc(C(=O)Nc2cccnc2)no1"
  growth inhibition: "0.43% (inactive)"
- compound: "Cc1ccc(Nc2nc(C3CC3)cs2)cc1"
  growth inhibition: "-8.21% (inactive)"
- compound: "COc1ccc(NS(=O)(=O)c2ccc(NS(=O)(=O)c3ccc(C)cc3)cc2)nn1"
  growth inhibition: "-13.5% (inactive)"
- compound: "CN1CCN(Cc2ccc(-c3ccc(Cl)cc3)o2)CC1"
  growth inhibition: "-15.8% (inactive)"
- compound: "COc1ccc(CNC(=O)c2ccc(NC(=O)C3CCCO3)cc2)cc1 (stereo not drawn)"
  growth inhibition: "-16.3% (inactive)"
- compound: "CCn1c(=O)c2c3c(sc2n2c(SCc4ccc(F)cc4)nnc12)CCCC3"
  growth inhibition: "-17.7% (inactive)"
- compound: "O=C(NC1CCCCC1)c1ccc(S(=O)(=O)N2CCOCC2)cc1"
  growth inhibition: "-2.04% (inactive)"
- compound: "COc1ccc(Cc2nc(-c3ccc(-n4cccc4)cc3)no2)cc1"
  growth inhibition: "0.23% (inactive)"
- compound: "COc1cccc(-c2nn(C)c3sc(C(=O)NCc4ccc5c(c4)OCO5)cc23)c1"
  growth inhibition: "2.61% (inactive)"
- compound: "COC(=O)C1CCN(C(c2ccc(OC)c(OC)c2)c2sc3nc(C)nn3c2O)CC1 (stereo not drawn)"
  growth inhibition: "7.23% (inactive)"
- compound: "CCOC(=O)COc1cccc2c(=O)n(CC(=O)N3CCN(C(=O)OCC)CC3)ccc12"
  growth inhibition: "-4.37% (inactive)"
- compound: "O=C1CC(N2CCN(C/C=C/c3ccccc3)CC2)C(=O)N1CCc1ccccc1 (stereo not drawn)"
  growth inhibition: "-12.7% (inactive)"
- compound: "CC(c1ccc(Br)cc1)N1CC23C=CC(O2)C(C(=O)O)C3C1=O (stereo not drawn)"
  growth inhibition: "0.305% (inactive)"
- compound: "CN(CC(=O)NC1CCCc2ccccc21)S(=O)(=O)c1ccc2c(c1)c(=O)n(C)c(=O)n2C (stereo not drawn)"
  growth inhibition: "-9.17% (inactive)"
- compound: "Cn1c(C(=O)N2CCC(C(=O)N3CCN(Cc4ccc5c(c4)OCO5)CC3)CC2)cc2sccc21"
  growth inhibition: "-9.98% (inactive)"
- compound: "Cc1ccc2c(CC(=O)O)coc2c1"
  growth inhibition: "-5.59% (inactive)"
- compound: "CC(=O)c1ccc(OCC(O)CN2CCC(C)CC2)cc1 (stereo not drawn)"
  growth inhibition: "-0.26% (inactive)"

* * *

assayProcedure: viability gain of MRP-1-high H69AR cells under doxorubicin, pilot screen, MRP-1 activator project, CellTiter-Glo, duplicate (AID 807);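 also: compound pretreatment 18-22 h then 72 h combined with doxorubicin; 0% = doxorubicin alone and 100% = vehicle without doxorubicin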
appliedConditions: H69AR viability with doxorubicin, CellTiter-Glo luminescence; at 10 µM; stronger effect = higher value
Active and inactive are the calls of the source.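 How the source made its calls: active means viability increase at or above a cutoff of the median across tested compounds plus 3 SD (cut at about 8.5% in these data, passing the limit was not always enough); inconclusive means some gains above the cutoff, reason not given; inactive means the rest.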
property: viability increase

- molecule: "COc1cc(C(=O)N2CCN(C(=O)C(Cc3cc(C)ccc3C)NC(C)=O)CC2)cc(OC)c1OC (stereo unspecified)"
  observed: "-2.13% (inactive)"
- molecule: "Cc1cccc(N2CCN(S(C)(=O)=O)CC2)c1C"
  observed: "-0.12% (inactive)"
- molecule: "CCS(=O)(=O)C(=C(Nc1ccc(OC)cc1)Nc1ccc(OC)cc1)S(=O)(=O)CC"
  observed: "-0.19% (inactive)"
- molecule: "Fc1ccc(-c2nnc3ccc(N4CCc5ccccc5C4)nn23)cc1"
  observed: "-7.99% (inactive)"
- molecule: "O=C(N=c1nc2ccccn2s1)c1ccccc1"
  observed: "-7.06% (inactive)"
- molecule: "Cc1nc2nc(SCC(=O)N3CCOCC3)nn2c(C)c1Cc1c(F)cccc1Cl"
  observed: "-6.91% (inactive)"
- molecule: "O=C(CSc1nc(-c2ccncc2)nn1CC(=O)N1CCCCC1)NC1CCCC1"
  observed: "-4.19% (inactive)"
- molecule: "CN(C)c1ccc(NC(=S)c2ccccn2)cc1"
  observed: "-8.3% (inactive)"
- molecule: "Cn1cccc1Cc1nnc(SCC(=O)NC2CCCCC2)n1CCc1ccccc1"
  observed: "-2.17% (inactive)"
- molecule: "CCC(C#CCN1CCCCC1)(CC)OCCC#N"
  observed: "-1.94% (inactive)"
- molecule: "CC(=O)N1CCN(c2ccc(NCc3ccc(F)cc3)cc2)CC1"
  observed: "-2.9% (inactive)"

* * *

assayProcedure: Restrictive medium S. cerevisiae growth inhibition, OD615, pilot screen of yeast lifespan reduction project, restrictive growth control (AID 706);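 also: modified DeaD lifespan yeast strain shifted to restrictive glucose medium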
appliedConditions: OD615, 48 h, at 10 µM, stronger effect = higher value
Listed here are molecules together with their documented growth inhibition.
property: growth inhibition (%)

- molecule: "Cc1nc(Nc2nc3ccccc3o2)nc2c1CCC2"
  unitsText: "%"
  observed: 16.7
- molecule: "CCCCNC(=O)c1ccc(CS(=O)(=O)c2ccc(OC)cc2)o1"
  unitsText: "%"
  observed: -23
- molecule: "CCC(=O)Nc1nnc(-c2ccco2)o1"
  unitsText: "%"
  observed: -4.75
- molecule: "CCOc1ccc(N(CC(=O)Nc2ccc(OC)cc2)S(=O)(=O)c2c(C)noc2C)cc1"
  unitsText: "%"
  observed: -2.61
- molecule: "CCN(CC)C(=O)CSc1nnc(-c2ccccc2)n1N"
  unitsText: "%"
  observed: -0.035
- molecule: "COc1cccc(-c2nc(CS(=O)(=O)CC(=O)NCc3ccccc3)c(C)o2)c1"
  unitsText: "%"
  observed: 8.33
- molecule: "N#Cc1c(-c2ccccc2)cc(-c2ccco2)c(C#N)c1N"
  unitsText: "%"
  observed: -10.5
- molecule: "COC(=O)c1ccccc1NC(=O)C1CCCN(c2nnc(-n3cccc3)s2)C1 (stereo not given)"
  unitsText: "%"
  observed: 4.77
- molecule: "Cc1cccc(N(C)S(=O)(=O)c2cccc3nsnc23)c1"
  unitsText: "%"
  observed: -17.9
- molecule: "COC(=O)COC(=O)c1ccc(Oc2nc(OC)nc(N(C)C)n2)cc1"
  unitsText: "%"
  observed: -13.7
- molecule: "O=C(CSc1ccc2nnc(-c3ccc(F)cc3)n2n1)N1CCOCC1"
  unitsText: "%"
  observed: -2.17
- molecule: "Cn1c(C(=O)N2CCN(c3ncccn3)CC2)cc2c(=O)n(C)c3ccccc3c21"
  unitsText: "%"
  observed: 8.57
- molecule: "Cc1nc2sc(C(c3cccs3)N3CCN(c4cccc(Cl)c4)CC3)c(O)n2n1 (stereo not given)"
  unitsText: "%"
  observed: 2.47
- molecule: "Cc1ncc(CO)c2cc(S(=O)(=O)c3ccc(F)cc3)c(=O)oc12"
  unitsText: "%"
  observed: -4.46
- molecule: "CCN1CCN(CC(=O)Nc2ccc3c(c2)OCCO3)C(=O)C1=O"
  unitsText: "%"
  observed: 10.1
- molecule: "O=C(O)c1cccc(CN2C(=O)CSC2=O)c1"
  unitsText: "%"
  observed: -12.3
- molecule: "CCN1CCN(c2nc(SC)nc3sc4c(c23)CC(C)(C)OC4)CC1"
  unitsText: "%"
  observed: -8.5
- molecule: "CCCCNC(=O)c1cc(-c2ccc(OC)c(OC)c2)on1"
  unitsText: "%"
  observed: 5.25
- molecule: "CCOC(=O)N1CCN(C(=O)CN(C2CCCCC2)S(=O)(=O)c2ccc(C)cc2)CC1"
  unitsText: "%"
  observed: -3.6
- molecule: "CC1(C)CC(=O)c2cc(C(=O)N3CCN(CCO)CC3)c(=O)n(-c3ccc(Cl)cc3)c2C1"
  unitsText: "%"
  observed: -25.4
- molecule: "Cc1ccc(C(=O)CC(C(=O)O)c2cn(CCC#N)c3ccccc23)cc1 (stereo not given)"
  unitsText: "%"
  observed: 3.92
- molecule: "CN1CCN(Cc2c(O)ccc3c(=O)c(Oc4ccccc4Cl)c(C(F)(F)F)oc23)CC1"
  unitsText: "%"
  observed: 12.6
- molecule: "COc1ccc(C2CC(=O)C(C=NCCO)=C(O)C2)cc1OC (stereo not given)"
  unitsText: "%"
  observed: 4.22
- molecule: "CCCCCSc1nnc2c(n1)OC(C)N(C(C)=O)c1ccccc1-2 (stereo not given)"
  unitsText: "%"
  observed: -6.29
- molecule: "Cn1c(=O)oc2cc(S(=O)(=O)NCCN3CCc4ccccc4C3)ccc21"
  unitsText: "%"
  observed: -10.7
- molecule: "CCOC(=O)Cc1csc(NC(=O)Nc2ccccc2)n1"
  unitsText: "%"
  observed: -12.1
- molecule: "COc1cccc(-c2nc(CS(=O)CC(=O)NC3CC3)c(C)o2)c1 (stereo not given)"
  unitsText: "%"
  observed: 14.2
- molecule: "Cc1nc(-c2ccc(S(=O)(=O)N3CCCCCC3)cc2)cs1"
  unitsText: "%"
  observed: 2.95
- molecule: "CC(=O)N1CCc2cc(C(=O)CN3CCN(c4cccc(Cl)c4)CC3)ccc21"
  unitsText: "%"
  observed: -7.26
- molecule: "O=C(c1ccc(CS(=O)(=O)c2ccc(Br)cc2)o1)N1CCOCC1"
  unitsText: "%"
  observed: -12.6
- molecule: "CCCNC(=O)CS(=O)Cc1nc(-c2ccc(OC)cc2)oc1C (stereo not given)"
  unitsText: "%"
  observed: 19.6
- molecule: "CC1CCCCN1CCNC(=O)c1cnn2ccccc12 (stereo not given)"
  unitsText: "%"
  observed: -9.32
- molecule: "OCCNc1nc(Nc2ccccc2)nc(Nc2ccccc2)n1"
  unitsText: "%"
  observed: 4.96
- molecule: "CCOC(=O)c1cnc2c(C#N)c(C)nn2c1-c1ccccc1"
  unitsText: "%"
  observed: 0.945
- molecule: "CCOc1cc(-c2nc(-c3ccncc3)no2)cc(OCC)c1OCC"
  unitsText: "%"
  observed: -6.19
- molecule: "Cc1cc(OCCCCCNCCO)ccc1Cl"
  unitsText: "%"
  observed: -3.71
- molecule: "COc1ccc(OC(C)C(=O)Nc2cccc(OC)c2)cc1 (stereo not given)"
  unitsText: "%"
  observed: -2.9
- molecule: "O=C(CSc1nnc(Cc2cc(=O)[nH]c(=O)[nH]2)n1-c1ccccc1)N1CCCCC1"
  unitsText: "%"
  observed: 5.95
- molecule: "CC1CN(C(c2cccs2)c2sc3ncnn3c2O)CC(C)O1 (stereo not given)"
  unitsText: "%"
  observed: -4.9
- molecule: "Cn1c(SCC(=O)Nc2cccc(F)c2)nnc1-c1cccnc1"
  unitsText: "%"
  observed: -4.04
- molecule: "N=c1n(-c2ccccc2)c(O)cc(=O)n1-c1ccccc1"
  unitsText: "%"
  observed: 1.77
- molecule: "CCOC(=O)C1=C(C)NC(=O)NC1c1ccc(OCC(=O)Nc2ccccc2)c(OC)c1 (stereo not given)"
  unitsText: "%"
  observed: -26
- molecule: "CS(=O)(=O)N(Cc1ccc(C(=O)NCc2ccco2)cc1)c1ccccc1"
  unitsText: "%"
  observed: -0.32
- molecule: "Cc1ccc(Cl)cc1N1CCN(C(=O)c2cc3c(=O)n(C)c4ccccc4c3n2C)CC1"
  unitsText: "%"
  observed: 9.03
- molecule: "O=C(O)[C@@H](c1ccccc1)N1Cc2ccccc2C1=O"
  unitsText: "%"
  observed: -13.5
